Provide the reported T/C of each item.
Test system: L1210 leukemia ip in BDF1 mice, survival T/C
Test: NCI In Vivo Anticancer Drug Screen. Data for tumor model L1210 Leukemia (intraperitoneal) in B6D2F1 (BDF1) mice
Conditions: endpoint: mean survival time; dose: 200.0 mg/kg/injection; schedule: Q04DX002 (ip); vehicle: saline; higher = longer survival
Inconclusive results and toxic doses are left out.

Examples with their reported T/C follow.
COMPOUND	T/C
CC1(C)OC(O)C(C(O)C(O)C(O)C(=O)O)O1 (stereo not drawn)	109 % of control
NC(CC(=O)O)c1cccs1 (stereo not drawn)	95 % of control
CCN(CC)CC(=O)NCC(CCN1CCCC1)(CC(C)C)c1cccc2ccccc12 (stereo not drawn)	94 % of control

For every record below, what is its T/C?
1. COc1ccc(CCN=C(N)CCl)cc1
2. O=C1OC(c2cccc([N+](=O)[O-])c2)=N/C1=C\c1ccc(O)cc1
3. CC1N(N=O)CC1(Cl)c1ccccc1 (stereo not drawn)
4. O=C(/C=C/C=[N+](/[O-])O)c1cncc(F)c1
5. CC1(C)OCC(C2OC(N)C3OC(C)(C)OC32)O1 (stereo not drawn)

["106 % of control", "101 % of control", "98 % of control", "101 % of control", "113 % of control"]

###

System: L1210 leukemia ip in BDF1 mice, survival T/C
Assay: NCI In Vivo Anticancer Drug Screen. Data for tumor model L1210 Leukemia (intraperitoneal) in B6D2F1 (BDF1) mice
Settings: endpoint: mean survival time; dose: 12.5 mg/kg/injection; schedule: Q01DX009 (ip); vehicle: saline with Tween-80; higher = longer survival
Inconclusive results and toxic doses are left out.
Provide the reported T/C of each item.

MOLECULE	T/C
COCCOCCOCCOCCOCCOC	104 % of control
CN(C)c1ccc(/C=N\NC(=S)Nc2ccccc2)c(Cl)c1	89 % of control

For each of the molecules below, note its T/C.
1. CCCCN=Cc1cc([N+](=O)[O-])ccc1O.CCCCN=Cc1cc([N+](=O)[O-])ccc1O.[Ni]
2. CC=NC(C)(C)C
3. S=C=NCCCCCCCCCCCCN=C=S
4. O=C(C=C(C(F)(F)F)C(F)(F)F)c1cccc(S(=O)(=O)F)c1
5. Cc1c2ccccc2c(CSC(=N)N)c2ccccc12

["98 % of control", "91 % of control", "93 % of control", "95 % of control", "108 % of control"]

// for each molecule in input: emit T/C
1. COC1C(c2ccccc2)NC(=O)C(Br)(C#N)C1c1ccccc1 (centres undefined)
2. NC(=S)N/N=C/c1cccc(CC(O)(C(F)(F)F)C(F)(F)F)n1

86 % of control
97 % of control

###

Would you kindly list T/C for each of these molecules?
System: L1210 leukemia ip in BDF1 mice, survival T/C
Experiment: NCI In Vivo Anticancer Drug Screen. Data for tumor model L1210 Leukemia (intraperitoneal) in B6D2F1 (BDF1) mice
Conditions: endpoint: mean survival time; dose: 25.0 mg/kg/injection; schedule: Q01DX001 (ip); vehicle: Klucel (hydroxypropylcellulose) (HPC); higher = longer survival
Inconclusive results and toxic doses are left out.

Check out these entries, answers already filled in.
MOLECULE	T/C
O=C1C=C(C(c2ccccc2)c2ccccc2)C(=O)C=C1NS(=O)(=O)c1ccccc1	106 % of control
OCCOc1c(Cl)c(C(Cl)(Cl)Cl)nc2ccccc12	103 % of control
O=C(Nc1ccc2cc(S(=O)(=O)O)ccc2c1)c1ccc(N=Nc2c(S(=O)(=O)O)cc3cc(S(=O)(=O)O)cc(NC(=O)c4ccccc4)c3c2O)cc1	93 % of control
COc1ccc(NC(=O)CCc2ccccc2)cc1	88 % of control
O=C(c1cccc([N+](=O)[O-])c1)C1CC1	97 % of control

Shift focus to the following entry.
Observed T/C on L1210 leukemia ip in BDF1 mice, survival T/C for c1ccc(C2=NC2c2ccccc2)cc1 (stereo unspecified) , please.
97 % of control

###

Test system: L1210 leukemia ip in BDF1 mice, survival T/C
Test: NCI In Vivo Anticancer Drug Screen. Data for tumor model L1210 Leukemia (intraperitoneal) in B6D2F1 (BDF1) mice
Settings: endpoint: mean survival time; dose: 100.0 mg/kg/injection; schedule: Q01DX001 (ip); vehicle: Klucel (hydroxypropylcellulose) (HPC); higher = longer survival
Inconclusive results and toxic doses are left out.
Provide the recorded T/C for the entries that follow.

These recorded examples may help you get a feel for the data.
COMPOUND	T/C
COc1ccc(NC(=O)CCc2ccccc2)cc1	86 % of control
O=C1NC(=O)N(c2ccccc2)C(=O)/C1=C/c1ccccc1	90 % of control
Cc1ccc(C(C)(O)CC(O)(C(F)(F)F)C(F)(F)F)cc1 (stereo not drawn)	104 % of control
Cc1n(C)c(=O)c2ccccc2[n+]1C	106 % of control
COC(=O)c1ccccc1Cc1cccc2c(Cl)cccc12	97 % of control

Provide the reported T/C of each entry below, same order.
1. COc1ccc(-n2c(=O)c(N=Nc3ccccc3OC)c(O)n(-c3ccccc3C)c2=S)cc1
2. O=C(OCC(OC(=O)c1ccccc1)C1OCOC2COCOC21)c1ccccc1 (stereo not drawn)
3. O=C(c1cccc([N+](=O)[O-])c1)C1CC1
4. O=C1C2CCN(CC2)C1Cn1cnc2c(Cl)ncnc21 (stereo not drawn)
5. CCOC(=O)CCc1c[nH]c(C)c1C(=O)C(=O)OCC
6. CC1(C)OB(C(B2OC(C)(C)C(C)(C)O2)=C(CCl)CCl)OC1(C)C
7. NC(=S)c1cccc(S(=O)(=O)Nc2ccccc2)c1

98 % of control
101 % of control
95 % of control
95 % of control
95 % of control
101 % of control
103 % of control

###

Test system: L1210 leukemia ip in BDF1 mice, survival T/C
Experiment: NCI In Vivo Anticancer Drug Screen. Data for tumor model L1210 Leukemia (intraperitoneal) in B6D2F1 (BDF1) mice
Details: endpoint: mean survival time; dose: 200.0 mg/kg/injection; schedule: Q01DX001 (ip); vehicle: carboxymethylcellulose (CMC); higher = longer survival
Toxic doses and inconclusive results are not listed.
READOUT_KIND: T/C

MOLECULE	REPORTED_MEASUREMENT
Cc1cc([N+](=O)[O-])cc(C)c1N	100 % of control
O=c1[nH]c2c(Cl)cc(Cl)cc2c2ccccc12	92 % of control
C/C=C/C(=O)Nc1ccccc1	113 % of control

List reported T/C for each of these molecules:
1. CCCNC(=O)NO
2. O=C(O)/C=C\C(=O)NCCCNC(=O)/C=C\C(=O)O
3. O=c1cc(-c2c(O)cc(O)cc2O)oc2cc(O)cc(O)c12
4. NC(=S)N/N=C/c1cc(Br)ccc1O
5. CC(/C=N/NC(N)=S)=N\NC(N)=S

100 % of control
96 % of control
94 % of control
100 % of control
91 % of control

# per-item lookup of T/C; items listed below
1. COc1c(OC)c(OC)c2c(c1OC)c(=O)c1ccccc1n2C
2. C1=CC2OC1c1ccccc12
3. CCC1CN1P1(=O)OCC(C)(N)CO1 (centres undefined)
4. CN(C)Cc1cc(C(F)(F)F)ccc1C(O)(c1ccccc1)c1ccccc1
5. CCOC(=O)CCCC(=O)c1ccc(OC)c(OC)c1

1: 96 % of control; 2: 106 % of control; 3: 101 % of control; 4: 101 % of control; 5: 102 % of control

If you can, please state the reported T/C value of "O=C(O)C1(O)c2cc(Br)ccc2-c2ccc(Br)cc21" .
100 % of control

###

System: L1210 leukemia ip in BDF1 mice, survival T/C
Assay: NCI In Vivo Anticancer Drug Screen. Data for tumor model L1210 Leukemia (intraperitoneal) in B6D2F1 (BDF1) mice
Settings: endpoint: mean survival time; dose: 100.0 mg/kg/injection; schedule: Q01DX009 (ip); vehicle: saline with Tween-80; higher = longer survival
Toxic doses and inconclusive results are not listed.
READOUT_KIND: T/C

COMPOUND	T/C
Cc1cc(C)c(NC(=O)NCCCl)c(C)c1	109 % of control
NC(=O)CN1C(=O)c2ccccc2C1=O	97 % of control
OCCN1CCSC1=S	87 % of control

Would you mind listing T/C for each of the following compounds?
1. CCOP(=S)(OCC)SC(C)c1ccccc1 (stereo not drawn)
2. CC(=O)OC1CCC2(C)C3CCC4(C)C(O)CCC4C3CC(O)C2(O)C1 (stereo not drawn)
3. COc1cc(CC(=O)O)c(OC)cc1CC(=O)O
4. CC(C)(C)c1ccc2c(c1)CCCC2
5. CCOC(=O)/C=C\C(=O)O.[Mn]

1: 91 % of control; 2: 110 % of control; 3: 101 % of control; 4: 89 % of control; 5: 110 % of control
